Provenance of the data: patent US11320422B2

# PROTOCOL SUMMARY: Initial assessment of inhibitor concentrations on recombinant CHO cell line growth (viable cell number, culture viability, ViCell)
# Format: cell-based, Chinese hamster
# MEASUREMENT SETUP: Chinese hamster; 0.5 and 1 μM; 48 hours after addition; compared to control; read-out: decrease in viable cell number
Where a SMILES comes first, the peptide text is derived from it. The star is where a group is joined. Cbz = O=C(OCc1ccccc1)*
ATTRIBUTE MEASURED: cytotoxicity at 48 h

Ask: Bench note: what cytotoxicity at 48 h did CC(C)C[C@@H](C=O)NC(=O)[C@H](CC(C)C)NC(=O)[C@H](CC(C)C)NC(=O)OCc1ccccc1 [MG-132, Z-Leu-Leu-Leu-al] (Cbz-Leu-Leu-Leu-aldehyde) show?
Result: ~40%
